Biological target: Choline O-acetyltransferase (Gallus gallus)
Assay: Inhibition of chick optic lobe choline acetyltransferase (ChAT) at 10e-4 M
measurement_name: inhibition

Report inhibition for every entry below.
1. CCCCCCCCCC[n+]1ccc(/C=C/c2nc3cc(C)c(C)cc3[nH]2)cc1
2. CCCC[n+]1cccc(/C=C/c2nc3cc(C)c(C)cc3[nH]2)c1
3. Cc1cc2nc(/C=C/c3cccnc3)[nH]c2cc1C
4. CCCC[n+]1ccc(/C=C/c2ncc[nH]2)cc1
5. C[n+]1ccc(/C=C/c2cccc3ccccc23)cc1
6. Cc1cc2nc(/C=C/c3ccncc3)[nH]c2cc1C
7. NC(=O)C[n+]1ccc(/C=C/c2cccc3ccccc23)cc1
8. Cc1cc2nc(/C=C/c3ccc[n+](C)c3)[nH]c2cc1C

< 1%
< 1%
< 1%
< 1%
73%
< 1%
78%
< 1%

I'm hoping you can list inhibition for every molecule here, please.
1. Cc1cc2nc(/C=C/c3cc[n+](C)cc3)[nH]c2cc1C
2. CCC[n+]1ccc(/C=C/c2cccc3ccccc23)cc1
3. CCCC[n+]1ccc(/C=C/c2nc3cc(C)c(C)cc3[nH]2)cc1
4. C[n+]1ccc(/C=N/c2nc3ccccc3[nH]2)cc1
5. C(=C\c1cccc2ccccc12)/c1ccncc1

< 1%
80%
< 1%
< 1%
5%

* * *

Target: Choline O-acetyltransferase (Rattus norvegicus)
Sequence (P32738 whole entry): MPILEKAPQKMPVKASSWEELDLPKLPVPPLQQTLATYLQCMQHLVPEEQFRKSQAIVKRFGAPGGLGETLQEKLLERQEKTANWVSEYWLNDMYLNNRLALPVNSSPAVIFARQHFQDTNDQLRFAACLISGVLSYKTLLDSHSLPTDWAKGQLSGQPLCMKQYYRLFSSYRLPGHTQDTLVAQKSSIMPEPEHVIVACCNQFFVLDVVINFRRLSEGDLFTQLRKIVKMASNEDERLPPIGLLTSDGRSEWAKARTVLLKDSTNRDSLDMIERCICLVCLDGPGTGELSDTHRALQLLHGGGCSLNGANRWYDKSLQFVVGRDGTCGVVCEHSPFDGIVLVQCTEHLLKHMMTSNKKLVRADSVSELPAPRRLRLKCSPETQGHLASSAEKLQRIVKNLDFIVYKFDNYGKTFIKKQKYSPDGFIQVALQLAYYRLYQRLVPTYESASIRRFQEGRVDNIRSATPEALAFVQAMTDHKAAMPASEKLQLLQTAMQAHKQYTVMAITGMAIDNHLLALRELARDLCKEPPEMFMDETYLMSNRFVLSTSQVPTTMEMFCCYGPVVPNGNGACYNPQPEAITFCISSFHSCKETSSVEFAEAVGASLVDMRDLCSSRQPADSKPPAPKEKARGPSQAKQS
measurement_name: pIC50
Give bare numbers, as −log10 of the molar value.

Find the measured pIC50: item CCC[n+]1ccc(/C=C/c2cccc3ccccc23)cc1 , target or system Choline O-acetyltransferase (Rattus norvegicus).
4.52

* * *

Biological target: Choline O-acetyltransferase (Gallus gallus, UniProt Q90YJ9)
Sequence (Q90YJ9 whole entry): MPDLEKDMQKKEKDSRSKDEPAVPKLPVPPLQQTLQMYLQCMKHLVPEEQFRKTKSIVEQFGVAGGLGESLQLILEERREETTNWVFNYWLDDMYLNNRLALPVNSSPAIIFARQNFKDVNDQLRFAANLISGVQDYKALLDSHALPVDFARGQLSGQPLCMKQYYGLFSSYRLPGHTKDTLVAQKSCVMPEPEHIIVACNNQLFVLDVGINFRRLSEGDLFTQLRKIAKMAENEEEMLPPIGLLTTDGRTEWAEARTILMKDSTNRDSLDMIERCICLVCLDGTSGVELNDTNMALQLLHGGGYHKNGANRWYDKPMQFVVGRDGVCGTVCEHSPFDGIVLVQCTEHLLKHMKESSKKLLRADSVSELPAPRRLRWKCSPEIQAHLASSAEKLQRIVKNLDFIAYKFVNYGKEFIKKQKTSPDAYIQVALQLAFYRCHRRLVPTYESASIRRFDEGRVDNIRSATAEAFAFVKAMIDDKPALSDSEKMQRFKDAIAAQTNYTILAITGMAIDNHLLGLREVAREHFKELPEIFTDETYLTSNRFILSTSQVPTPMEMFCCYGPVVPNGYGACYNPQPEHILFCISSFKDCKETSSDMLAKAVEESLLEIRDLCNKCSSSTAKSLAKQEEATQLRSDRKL
Assay: Compound was tested in vitro for inhibitory activity against chick choline acetyltransferase (ChAT)
measurement_name: IC50 (µM)
Answers are plain numbers, in µM.

Recorded IC50 for CCC[n+]1ccc(/C=C/c2cccc3ccccc23)cc1 , please?
58

The origin of these recorded values is ChEMBL document CHEMBL1126369.
